testProtocol: folding enthalpy; higher = less favourable; fluorescence melt of hairpins on a sequencing array, two-state fit
conditions: sodium 0.088 M
Parameter: folding enthalpy. Scope: all listed entries.
measureName: folding enthalpy

- residueSequence: "GTGAAGTCGAAAGACCAC (((..(((....))))))"
  reading: "-23.9 kcal/mol"
- residueSequence: "GGCTGTGGAAACACGGCC (((.(((....))).)))"
  reading: "-46.6 kcal/mol"
- residueSequence: "GTCGGCGAAAGCCCAGAC ((((((....)))..)))"
  reading: "-13.5 kcal/mol"
- residueSequence: "GATCACGGCGGTGATC ((((((....))))))"
  reading: "-45.6 kcal/mol"
- residueSequence: "GCTGCCCGAAAGGGAGC (((.(((....))))))"
  reading: "-23 kcal/mol"
- residueSequence: "GCAGGCGAAAGCCTTGC ((((((....))).)))"
  reading: "-17.6 kcal/mol"
- residueSequence: "GGCACACCGAAAGGTGCC (((..(((....))))))"
  reading: "-14.3 kcal/mol"
- residueSequence: "GGTTTGGGAAACCAGACC (((.(((....))).)))"
  reading: "-33.1 kcal/mol"
- residueSequence: "GCCTTGCGAAAGCCGGGC (((..((....))..)))"
  reading: "-19.9 kcal/mol"
- residueSequence: "GCTAGTGCGAAAGCAAGC (((..(((....))))))"
  reading: "-12.3 kcal/mol"
- residueSequence: "GCTGGGCGAAAGCCGGGC ((..(((....)))..))"
  reading: "-19.3 kcal/mol"
- residueSequence: "GATCGTACTTACGATC ((((((....))))))"
  reading: "-39.8 kcal/mol"

Provenance of the data: the array DNA melting data of Ke et al. (doi:10.1101/2024.01.08.574731)
